molecular target: rat adrenergic α1B receptor (Rattus norvegicus, UniProt P15823); construct: rat adrenergic α1B receptor obtained from Wistar Rat liver; from tissue; host or cells: Wistar rat liver; test: Radioligand binding, adrenergic α1B ([3H]Prazosin); details: compound at 0.1 μM; [3H]Prazosin; repeat assays, each datapoint shown; read-out: Percentage inhibition of ligand binding, Adrenergic α1B
ENDPOINT LABEL: inhibition at 0.1 µM (%)

Sample answers from the record:
compound="Cc1ccc2c(c1)c1c(n2CC(O)c2cccnc2)CCN(C)C1 (centres unmarked) [compound 62]" readout_number=16
compound="CN1CCc2c(n(CC(O)c3ccncc3)c3ccc(Cl)cc23)CC1 (single isomer, unassigned) [15b]" readout_number=89
compound="C/C(=C/n1c2c(c3cc(C)ccc31)CN(C)CC2)c1cn[nH]c1 [compound 80]" readout_number=49
compound="CN1CCc2c(c3cc(Cl)ccc3n2CC(O)c2ccncc2)C1 (centres unmarked) [compound 4]" readout_number=51
compound="COc1ccc(C(O)Cn2c3c(c4cc(C)ccc42)CN(C)CC3)cc1OC (centres unmarked) [compound 66]" readout_number=48
compound="Cc1ccc2c(c1)c1c(n2CC(C)(O)c2ccncc2)CN(C)CC1 (single isomer, unassigned) [19a]" readout_number=75
compound="Cc1ccc2c(c1)c1c(n2CC(O)c2ccncc2)CC2CCC1N2C (centres unmarked) [compound 73]" readout_number=17
compound="CN1CCc2c(n(CC(O)c3ccncc3)c3ccc(Cl)cc23)C1 (centres unmarked) [compound 41]" readout_number=57

A: CC(O)(Cn1c2c(c3cc(Cl)ccc31)CNCC2)c1ccncn1 (single isomer, unassigned) [42a]
B: Cc1ccc2c(c1)c1c(n2CC(C)(O)c2ccc(C)nc2)CCN(C)C1 (centres unmarked) [compound 29]
Which record shows the lower inhibition at 0.1 µM: the first, A , or the second, B ? Let me know the label of the one you choose.
A

P: Cc1ccc2c(c1)c1c(n2CC(O)c2ccncc2)C(C)N2CCC1C2 (centres unmarked) [compound 38]
Q: CN1CCc2c(c3cc(Cl)ccc3n2CCC(=O)OC2CCCC2)C1 [compound 88]
R: Cc1ccc2c(c1)c1c(n2CC(C)(O)c2ccc(C)nc2)CCN(C)C1 (single isomer, unassigned) [29a]
Hey, can you sort those compounds up there by inhibition at 0.1 µM, smallest first? To answer, arrange all of the labels according to the requested order.
Q, P, R

A: Cc1ccc2c(c1)c1c(n2CC(C)(O)c2cccnc2)CCNC1 (single isomer, unassigned) [24a]
B: Cc1ccc2c(c1)c1c(n2CC(O)c2ccncc2)CCN(C)CC1 (single isomer, unassigned) [13b]
C: Cc1ccc2c(c1)c1c(n2CC(O)c2ccncc2)CN(C)CC1 (centres unmarked) [compound 8]
Hey, can you sort those compounds up there by inhibition at 0.1 µM, smallest first? To answer, arrange all of the labels according to the requested order.
A, C, B
(A: 8%, C: 58%, B: 91%)

====

molecular target: human recombinant adrenergic α2B receptor (Homo sapiens, UniProt P18089); construct: expressed in transfected cells; host or cells: CHO-K1; assay: Radioligand binding, adrenergic α2B ([3H]Rauwolscine); conditions: read-out: Ki α2B
Sequence (P18089 whole entry): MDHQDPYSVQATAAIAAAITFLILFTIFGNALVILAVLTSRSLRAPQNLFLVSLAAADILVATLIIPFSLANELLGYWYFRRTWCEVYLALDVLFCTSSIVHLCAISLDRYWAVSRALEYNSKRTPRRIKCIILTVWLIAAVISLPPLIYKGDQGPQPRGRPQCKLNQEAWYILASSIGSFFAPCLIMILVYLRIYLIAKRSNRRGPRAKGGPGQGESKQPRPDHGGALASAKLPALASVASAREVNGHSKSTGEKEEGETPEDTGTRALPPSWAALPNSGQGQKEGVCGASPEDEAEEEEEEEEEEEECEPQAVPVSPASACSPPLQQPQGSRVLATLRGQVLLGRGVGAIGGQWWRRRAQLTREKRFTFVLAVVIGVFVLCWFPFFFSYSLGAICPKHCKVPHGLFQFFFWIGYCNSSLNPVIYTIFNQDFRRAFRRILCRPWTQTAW
pKi: −log10 of the molar value.
ENDPOINT LABEL: pKi

Sample answers from the record:
compound="CN1CCc2c(c3cc(Cl)ccc3n2CCc2ccc(Cl)cc2)C1 [compound 213]" readout_number=7.58
compound="Cc1ccc2c(c1)c1c(n2CC(O)c2ccncc2)CCN(C)CC1 (single isomer, unassigned) [13b]" readout_number=9.21
compound="CN1CCc2c(c3cc(Cl)ccc3n2CC(O)c2ccncc2)C1 (single isomer, unassigned) [4a]" readout_number=9.19

1: Cc1ccc2c(c1)c1c(n2CC(O)c2ccncc2)CCN(C)C1 (single isomer, unassigned) [3a]
2: Cc1cc(C)c2c(c1)c1c(n2CC(O)c2ccncc2)CCN2CCCC12 (single isomer, unassigned) [II-125b]
Compare the recorded pKi of 1 and 2 ; state which is larger. Let me know the label of the one you choose.
2

====

target: rat adrenergic α1B receptor (Rattus norvegicus, UniProt P15823); construct: rat adrenergic α1B receptor obtained from Wistar Rat liver; from tissue; host or cells: Wistar rat liver; assay: Radioligand binding, adrenergic α1B ([3H]Prazosin); details: read-out: Percentage inhibition of ligand binding, Adrenergic α1B (0.1 μM), compound at 0.1 μM; [3H]Prazosin; repeat datapoints each shown
ENDPOINT LABEL: inhibition at 0.1 µM (%)

compound=Cc1ccc2c(c1)c1c(n2CCc2cncc(F)c2)CCN(C)C1 subject_of_test="rat adrenergic α1B receptor (Rattus norvegicus, UniProt P15823)" endpoint_label="inhibition at 0.1 µM" unit_string=% readout_number=59

P: C=C(Cn1c2c(c3cc(Cl)ccc31)CN(C)CC2)c1ccncc1
Q: C/C(=C\n1c2c(c3cc(C)ccc31)CCN(C)CC2)c1ccccc1F
R: CN1CCc2c(c3cc(CO)ccc3n2CC(C)(F)c2cccnc2)C1 (stereo not drawn)
S: C/C(=C\n1c2c(c3cc(C)ccc31)CN(C)CC2)c1ccc(C)nc1
T: Cc1ccc2c(c1)c1c(n2CC(C)(O)c2cccnc2)C(O)CN(C)C1 (single isomer, unassigned) [II-151a]
Rank the 5 compounds: largest inhibition at 0.1 µM first, smallest last. To answer, arrange all of the labels according to the requested order.
Q, S, P, T, R

A: Cc1ccc(CCn2c3c(c4cc(C)ccc42)CN(C)CC3)cc1
B: Cc1ccc2c(n1)c1c(n2CC(O)c2ccncc2)CCN2CCCC12 (stereo not drawn)
Which record shows the lower inhibition at 0.1 µM: the first, A , or the second, B ? Let me know the label of the one you choose.
B

====

Target: rat adrenergic α1B receptor (Rattus norvegicus)
Construct: rat adrenergic α1B receptor obtained from Wistar Rat liver; from tissue; host or cells: Wistar rat liver
Sequence (P15823 1-515): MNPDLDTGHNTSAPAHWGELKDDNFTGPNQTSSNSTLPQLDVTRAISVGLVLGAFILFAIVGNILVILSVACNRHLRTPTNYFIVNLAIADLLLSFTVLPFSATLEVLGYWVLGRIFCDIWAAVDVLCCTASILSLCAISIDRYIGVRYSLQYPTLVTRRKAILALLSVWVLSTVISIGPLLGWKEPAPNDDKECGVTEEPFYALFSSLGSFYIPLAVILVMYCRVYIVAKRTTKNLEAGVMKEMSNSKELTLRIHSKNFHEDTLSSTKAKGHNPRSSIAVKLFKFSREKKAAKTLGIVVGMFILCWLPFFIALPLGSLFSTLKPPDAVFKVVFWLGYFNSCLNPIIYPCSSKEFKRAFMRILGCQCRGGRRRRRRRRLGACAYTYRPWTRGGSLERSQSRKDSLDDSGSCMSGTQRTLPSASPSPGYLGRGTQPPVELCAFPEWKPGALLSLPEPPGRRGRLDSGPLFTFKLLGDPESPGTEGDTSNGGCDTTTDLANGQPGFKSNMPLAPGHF
Experiment: Radioligand binding, adrenergic α1B ([3H]Prazosin)
Details: read-out: Percentage inhibition of ligand binding, Adrenergic α1B (0.1 μM), compound at 0.1 μM; [3H]Prazosin; repeat datapoints each shown
ENDPOINT LABEL: inhibition at 0.1 µM (%)

Sample answers from the record:
compound=Cc1cnc2c(c1)c1c(n2CCc2ccc(C)nc2)CCN(C)C1 readout_number=25
compound=Cc1ccc(CCn2c3c(c4ccccc42)CN(C)CC3)cc1 readout_number=30
compound="CN1CCc2c(c3ccccc3n2CC(C)(O)c2ccncc2)C1 (stereo not drawn)" readout_number=95
compound="Cc1ccc2c(c1)c1c(n2CC(OC(=O)CCC(=O)O)c2ccncc2)CCN2CCCC12 (single isomer, unassigned) [V-18a]" readout_number=78
compound="Cc1ccc2c(c1)c1c(n2CC(O)c2ccc(C#N)cc2)CCN(C)C1 (single isomer, unassigned) [142a]" readout_number=68
compound="Cc1cnc2c(c1)c1c(n2CCc2cccnc2)CCN2CCCC12 (stereo not drawn) [134a]" readout_number=27
compound="Cc1ccc2c(c1)c1c(n2CC(C)(O)c2ccc(O)cc2)CCN(C)C1 (stereo not drawn)" readout_number=81
compound="Cc1ccc2c(c1)c1c(n2CC(OC(=O)N(C)C)c2ccncc2)CCN(C)C1 (single isomer, unassigned) [141b]" readout_number=28

A: Cc1ccc2c(c1)c1c(n2CC(O)c2cnc[nH]2)CCN2CCCC12 (stereo not drawn)
B: Cc1ccc2c(c1)c1c(n2CC(O)c2cnn(C)c2)CCN(C)C1 (stereo not drawn) [131a]
Which record shows the lower inhibition at 0.1 µM: the first, A , or the second, B ? Let me know the label of the one you choose.
B

A: Cc1ccc2c(c1)c1c(n2CC(OC(=O)N(C)C)c2ccncc2)CCN(C)C1 (stereo not drawn) [compound 141]
B: Cc1ccc(CCn2c3c(c4cccnc42)C2CCCN2CC3)cn1 (stereo not drawn)
C: C/C(=C\n1c2c(c3cc(C)ccc31)CN(C)CC2)c1ccnn1C
D: Cc1cnc2c(c1)c1c(n2CCc2ccc(C(N)=O)nc2)CCN2CCCC12 (stereo not drawn)
E: Cc1ccc2c(c1)c1c(n2CC(C(=O)O)c2ccncc2)CCN(C)C1 (stereo not drawn)
Hey, can you sort those compounds up there by inhibition at 0.1 µM, smallest first? To answer, arrange all of the labels according to the requested order.
B, E, A, C, D

Ref: patent US8791132B2
